- measurement context: buffer; pH 7.4; 200.0 µM
measured attribute: solubility kinetic (µg/mL)
Output spec: scalar in µg/mL, unitless text.

Form field: reported solubility kinetic of O=c1[nH]c2ccccc2c(O)c1-c1ccccc1 17.2

---

Reported solubility kinetic by item:
- measurement context: buffer; pH 7.4; 200.0 µM
Output spec: scalar in µg/mL, unitless text.

Study these solved cases before continuing.
COc1cccc(OCCCn2ccnc2)c1.Cl	33.1
CNS(=O)(=O)c1cccc(C(=O)NCC(C)(C)N2CCCCC2)c1	48.8

Now for the compound whose solubility kinetic we want.
Form field: reported solubility kinetic of CCc1ncc(/C=C2\C(=O)Nc3ccccc32)[nH]1 6.7

---

- measurement context: buffer; pH 7.4; 200.0 µM
measured attribute: solubility kinetic (µg/mL)
Output spec: scalar in µg/mL, unitless text.

Study these solved cases before continuing.
Cc1ccc(OCC(O)CNC(C)c2ccccc2)cc1C.Cl (stereo unspecified)	45.9
Cc1cc(NC(=O)CN2C(=O)NC(C)(c3ccc(Cl)cc3Cl)C2=O)no1 (stereo unspecified)	7.4

Form field: reported solubility kinetic of CC(=O)Nc1ccc(C(=O)COC(=O)c2cc(C)oc2C)c(F)c1 7.8

---

Reported solubility kinetic by item:
- measurement context: buffer; pH 7.4; 200.0 µM
Output spec: scalar in µg/mL, unitless text.

Study these solved cases before continuing.
O=C(Nc1ccccc1)c1ccc(NC(=O)C2CC2)cc1	1.2
COC(=O)c1c(C)[nH]c(C(=O)OCC(=O)c2c(N)n(CC(C)C)c(=O)n(C)c2=O)c1C	14
COC(=O)C1=C(C)N(c2ccc(OC)cc2)C(C)=C(C(=O)OC)C1c1ccccc1	1

Form field: reported solubility kinetic of O=C(CCNc1ccc(Cc2ccncc2)cc1)c1ccc([N+](=O)[O-])cc1 11.6

---

- measurement context: buffer; pH 7.4; 200.0 µM
measured attribute: solubility kinetic (µg/mL)
Output spec: scalar in µg/mL, unitless text.

Study these solved cases before continuing.
CSc1nc2ccc(NC(=O)c3ccc(=O)[nH]c3)cc2s1	16.1
O=C(Cc1ccccc1F)Nc1ccc(S(=O)(=O)N2CCCC2)cc1	44.9
COc1ccc(C(=O)O/N=C(\N)c2ccc(OC)c(OC)c2)cc1	9.3
Cc1nc(C(F)(F)F)ccc1C(=O)Nc1ccccc1N1CCOCC1	50.8
O=C(O)CCCC(=O)N1CCOCCOCCOCCOCC1	48.2
CC1CCCCC12NC(=O)N(CC(=O)Nc1ccc(OC(F)F)cc1)C2=O (configuration not stated)	18.2
COc1c(Cl)cccc1-c1cn2ccc(C)cc2n1	1.4

Now for the compound whose solubility kinetic we want.
Form field: reported solubility kinetic of O=C(Cc1ccc(Cl)cc1Cl)Nc1ccncc1Cl 12.4

---

- measurement context: buffer; pH 7.4; 200.0 µM
measured attribute: log10 solubility kinetic (log10 of the value in µg/mL)
All values: log10 solubility kinetic [µg/mL].

Study these solved cases before continuing.
O=C1CCCc2ccccc2N1Cc1ccc(F)cc1	1.48
O=C(NCCCCNC(=O)c1ccc(F)cc1)c1ccc(F)cc1	0.59
Cc1ccc(S(=O)(=O)N2CCCC(C(=O)NC3CC3)C2)cc1 (stereo not drawn)	1.66
O=C(Nc1ccc2cccnc2c1)c1ccc(Br)cc1	-0.40
Cc1ccccc1NC1=NC2(CCCC2)N=C(N)N1	1.45

Form field: reported log10 solubility kinetic of COc1ccc(/C=C/C(=O)OCC(=O)NCc2ccccc2Cl)cc1OC 0.92

Form field: reported log10 solubility kinetic of Cc1cc2c(NCc3ccccc3)ncnc2s1.Cl 1.62
